Test system: RPMI-8226 leukemia
Assay: NCI tumour cell line growth inhibition, 48 h
Reported TGI values follow for various compounds

Give RPMI-8226 leukemia TGI for COc1cc2c(c(O)c1OC)CC1CCC(=O)N1C2c1cccc2ccccc12 (configuration not stated)
> 100 µM

Same question for `O=C(/C=C/c1cccc(Oc2ccccc2)c1)NCc1ccc(C(=O)NCCc2ccccc2)cc1` please.
> 100 µM

Same question for `O=c1[nH]c2ccccc2nc1/C=C(\O)c1ccccc1O` please.
> 100 µM

Same question for `Cc1cc2c(C)n(Cc3ccccc3Cl)nc2c(C(=O)O)c1C` please.
> 100 µM

Same question for `C[N+](C)(C)CC(=O)N/N=C(/C(=O)Nc1ccc(Br)cc1)C1C(=O)NC(=O)NC1=O` please.
> 100 µM

Same question for `COc1cc2c3c(n(C)c(=O)c2cc1OC)-c1cc2c(cc1/C3=C\CCCI)OCO2` please.
> 74.6 µM

----------
Test system: PC-3 prostate
Experiment: NCI tumour cell line growth inhibition, 48 h
Assign Met to entries whose TGI meets or exceeds 7 µM; assign Not met to the rest.

CCN(CC)CCCNc1cc(OC)cc2nc3cc(Cl)ccc3nc12
Met
CCCCCCCCCCCC[C@@H](O)[C@H]1CCC([C@H](O)CCCCC(=O)CCCCCCCC2=C[C@H](C)OC2=O)O1 (stereo not given in full)
Met
COC12C=C/C(=C(/C(=O)OCc3ccccn3)C(=O)CCCCCCCCC3(OC)C=C/C(=C(/C(=O)OCc4ccccn4)C(=O)CCCCCCCC1)O3)O2
Not met
Cc1cc(S(=O)(=O)Nc2nnc3cnc4ccccc4n23)c(S)cc1Cl
Met

# check: TGI of `CC(=O)Oc1c(-c2ccccc2)sc2ccccc12` is greater than or equal to 7 µM
Met

Same question for CCCCCCCCCCCCCCC(O)C[N+](C)(CCO)CCO (stereo not given) please.
Not met

Same question for CCOC(=O)C(NC(=O)c1ccccc1)(N1CCN(c2cc3c(cc2F)c(=O)c(C(=O)O)cn3CC)CC1)C(F)(F)F (stereo not given) please.
Met

Same question for CCC(C)[C@H](NC(=O)Nc1cc(C(F)(F)F)cc(C(F)(F)F)c1)C(=O)N[C@@H](Cc1cn(C)cn1)C(=O)OC (stereo not given in full) please.
Not met

Same question for O=C1CC(c2cccc(F)c2)Nc2cc3c(cc21)OCO3 (stereo not given) please.
Met

Same question for `COc1c(-c2nc3nc(N4CCN(C)CC4)ccc3[nH]2)cc(OC)c2c1nc(COC(C)=O)n2C` please.
Met

Same question for `COc1cc(OC)cc(-c2n/c(=C\c3c(O)[nH]c4ccc(OC)cc34)cc3c2=Nc2ccccc2-3)c1` please.
Met

Same question for `Cc1ccc(C(=O)Nc2ccc(CP(=O)(O)O)cc2CP(=O)(O)O)cc1NC(=O)Nc1cc(C(=O)Nc2ccc(CP(=O)(O)O)cc2CP(=O)(O)O)ccc1C` please.
Met

Same question for `O=c1oc2ccccc2cc1-c1cn2c(n1)sc1ccccc12` please.
Met

Same question for CC1C(C)N(C(=O)CCl)c2ccccc2N1C(=O)CCl (stereo not given) please.
Not met

Same question for COC1=CC(=O)CC(C)C12Oc1c(Cl)c(OC)cc(OC)c1C2=O (stereo not given) please.
Met

Where do the numbers come from? From PubChem BioAssay (NCI).
